Please respond with reported binding affinity ratio (IC50 of standard peptide / IC50 of test peptide) for every item in the list.
Biological target: HLA-A*3301 (human)
Assay: competition with 125I-labelled probe peptide for purified HLA, gel filtration
Enter a number only.

Query: Please report binding affinity ratio (IC50 of standard peptide / IC50 of test peptide) for the following binder: LSTLPETTVVR (modifications not checked) [HBV NUC 169 peptide …]
Response: -0.0023

Query: Give me measured binding affinity ratio (IC50 of standard peptide / IC50 of test peptide), please, for this binder: NLEDPASR (modifications not checked) [HBV NUC 75 peptide NLEDPASR]
Response: -0.0009

Query: Look up and report measured binding affinity ratio (IC50 of standard peptide / IC50 of test peptide) for this entry: GIHLNPNKTK (modifications not checked) [HBV POL 567 peptide …]
Response: 0.0009

The reported measurements were obtained from patent US20070059799A1.
